SYSTEM_TESTED: Human immunodeficiency virus type 1 protease (Human immunodeficiency virus 1, UniProt Q72874)
PROPERTY_NAME: pKi
By convention, pKi is the negative base-10 log of a molar concentration.

Quick check: pKi of O=C(Nc1ccccc1C(=O)N[C@@H](Cc1ccccc1)[C@H](O)[C@H](O)[C@H](Cc1ccccc1)NC(=O)O[C@@H]1CCOC1)OCc1ccccn1 ? 10.15

Quick check: pKi of Nc1cccc(C(=O)N[C@@H](Cc2ccccc2)[C@@H](O)C[C@H](Cc2ccccc2)NC(=O)c2ccccc2NC(=O)OCc2ccccn2)c1 ? 9.40

Next:
Quick check: pKi of Cc1c(O)cccc1C(=O)N[C@@H](Cc1ccccc1)[C@@H](O)[C@@H](O)[C@H](Cc1ccccc1)NC(=O)c1ccccc1NC(=O)OCc1ccccn1 ? 10.05

Recorded values, source ChEMBL document CHEMBL1131273.
